Hey, just so you know, these numbers are from ChEMBL document CHEMBL3580561.

Known clearance of a selection of compounds
# protocol notes: Clearance in Sprague-Dawley rat at 1 mg/kg, iv solution at pH 4.5
# Format: ADME, organism-based
# cond: in vivo
attribute measured: clearance (L/h/kg)

- compound structure: "N#Cc1cc2c(cn1)[nH]c1ncc(-c3ccc(CN4CCCCC4)cc3)cc12"
  numeric result: 1.48
- compound structure: "N#Cc1cc2c(cn1)[nH]c1ncc(-c3ccc(CN4CCC5(CC4)COC5)cc3)cc12"
  numeric result: 1.65

====

# protocol notes: Cmax in Sprague-Dawley rat at 5 mg/kg, po suspension at pH 6.5
# Assay type: ADME, organism-based
# Design: dose 5 mg/kg, route oral
# cond: in vivo

- compound structure: "N#Cc1cc2c(cn1)[nH]c1ncc(-c3ccc(CN4CCC5(CC4)COC5)cc3)cc12"
  Cmax [nM]: 1100
- compound structure: "N#Cc1cc2c(cn1)[nH]c1ncc(-c3ccc(CN4CCCCC4)cc3)cc12"
  Cmax [nM]: 520

====

# experimental system: Serine/threonine-protein kinase Chk1 (Homo sapiens, UniProt O14757)
# Sequence (O14757 whole entry): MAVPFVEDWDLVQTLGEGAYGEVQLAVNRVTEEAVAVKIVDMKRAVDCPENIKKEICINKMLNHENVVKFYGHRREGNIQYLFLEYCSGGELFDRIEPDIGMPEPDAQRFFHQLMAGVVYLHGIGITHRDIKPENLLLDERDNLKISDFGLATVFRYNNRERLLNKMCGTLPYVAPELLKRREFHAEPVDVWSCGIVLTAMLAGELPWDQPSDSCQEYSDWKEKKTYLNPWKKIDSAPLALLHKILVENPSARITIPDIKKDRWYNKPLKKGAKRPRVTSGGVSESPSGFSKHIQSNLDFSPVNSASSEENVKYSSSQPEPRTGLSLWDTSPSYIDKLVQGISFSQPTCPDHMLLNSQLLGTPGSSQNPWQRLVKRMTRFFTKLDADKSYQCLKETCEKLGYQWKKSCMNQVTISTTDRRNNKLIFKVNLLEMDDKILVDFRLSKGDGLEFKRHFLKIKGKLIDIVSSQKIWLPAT
# protocol notes: Inhibition of CHK1 in human HT29 cells assessed as phosphorylation of histone H3 after 24 hrs by checkpoint abrogation cellular assay
pEC50: −log10 of the molar value.

- compound structure: "NC(=O)c1cc2c(cn1)[nH]c1ncc(-c3ccc(CN4CCCCC4)cc3)cc12"
  experimental system: "Serine/threonine-protein kinase Chk1 (Homo sapiens, UniProt O14757)"
  censoring qualifier: "="
  pEC50: 6.53
- compound structure: "N#Cc1cc2c(cn1)[nH]c1ncc(-c3ccc(CN4CCC(O)CC4)cc3)cc12"
  experimental system: "Serine/threonine-protein kinase Chk1 (Homo sapiens, UniProt O14757)"
  censoring qualifier: "="
  pEC50: 6.84
- compound structure: "N#Cc1cc2c(cn1)[nH]c1ncc(-c3ccc(CN4CCC(F)CC4)cc3)cc12"
  experimental system: "Serine/threonine-protein kinase Chk1 (Homo sapiens, UniProt O14757)"
  censoring qualifier: "="
  pEC50: 7.02
- compound structure: "C[C@@H]1CCC[C@H](C)N1Cc1ccc(-c2cnc3[nH]c4cnc(C#N)cc4c3c2)cc1"
  experimental system: "Serine/threonine-protein kinase Chk1 (Homo sapiens, UniProt O14757)"
  censoring qualifier: "="
  pEC50: 7.00
- compound structure: "CN1CCN(c2cccc(-c3cnc4[nH]c5cnc(C#N)cc5c4c3)c2)CC1"
  experimental system: "Serine/threonine-protein kinase Chk1 (Homo sapiens, UniProt O14757)"
  censoring qualifier: "="
  pEC50: 6.88
- compound structure: "c1cnc(-c2cc3c(cn2)[nH]c2ncc(-c4ccc(CN5CCCCC5)cc4)cc23)cn1"
  experimental system: "Serine/threonine-protein kinase Chk1 (Homo sapiens, UniProt O14757)"
  censoring qualifier: "="
  pEC50: 6.77
- compound structure: "N#Cc1cc2c(cn1)[nH]c1ncc(-c3ccc(N4CCOCC4)cc3)cc12"
  experimental system: "Serine/threonine-protein kinase Chk1 (Homo sapiens, UniProt O14757)"
  censoring qualifier: "="
  pEC50: 6.66
- compound structure: "CCN1CCc2cc(-c3cnc4[nH]c5cnc(C#N)cc5c4c3)ccc2C1"
  experimental system: "Serine/threonine-protein kinase Chk1 (Homo sapiens, UniProt O14757)"
  censoring qualifier: "="
  pEC50: 6.82
- compound structure: "COc1cc2c(cn1)[nH]c1ncc(-c3ccc(CN4CCCCC4)cc3)cc12"
  experimental system: "Serine/threonine-protein kinase Chk1 (Homo sapiens, UniProt O14757)"
  censoring qualifier: "="
  pEC50: 6.01
- compound structure: "N#Cc1cc2c(cn1)[nH]c1ncc(-c3ccoc3)cc12"
  experimental system: "Serine/threonine-protein kinase Chk1 (Homo sapiens, UniProt O14757)"
  censoring qualifier: "="
  pEC50: 6.74
- compound structure: "CC(C)(c1ccc(-c2cnc3[nH]c4cnc(C#N)cc4c3c2)cc1)N1CCCCC1"
  experimental system: "Serine/threonine-protein kinase Chk1 (Homo sapiens, UniProt O14757)"
  censoring qualifier: "="
  pEC50: 6.64
- compound structure: "OCc1cc2c(cn1)[nH]c1ncc(-c3ccc(CN4CCCCC4)cc3)cc12"
  experimental system: "Serine/threonine-protein kinase Chk1 (Homo sapiens, UniProt O14757)"
  censoring qualifier: "="
  pEC50: 6.35
- compound structure: "c1cc2c(cn1)[nH]c1ncc(-c3ccc(CN4CCCCC4)cc3)cc12"
  experimental system: "Serine/threonine-protein kinase Chk1 (Homo sapiens, UniProt O14757)"
  censoring qualifier: "="
  pEC50: 5.72
- compound structure: "CC1(C)CCCN(Cc2ccc(-c3cnc4[nH]c5cnc(C#N)cc5c4c3)cc2)C1"
  experimental system: "Serine/threonine-protein kinase Chk1 (Homo sapiens, UniProt O14757)"
  censoring qualifier: "="
  pEC50: 6.89
- compound structure: "c1ncc(-c2cc3c(cn2)[nH]c2ncc(-c4ccc(CN5CCCCC5)cc4)cc23)s1"
  experimental system: "Serine/threonine-protein kinase Chk1 (Homo sapiens, UniProt O14757)"
  censoring qualifier: "="
  pEC50: 7.20
- compound structure: "N#Cc1cc2c(cn1)[nH]c1ncc(-c3ccc(CO)cc3)cc12"
  experimental system: "Serine/threonine-protein kinase Chk1 (Homo sapiens, UniProt O14757)"
  censoring qualifier: "="
  pEC50: 6.03
- compound structure: "N#Cc1cc2c(cn1)[nH]c1ncc(-c3ccc(CN4CCC[C@@H](O)C4)cc3)cc12"
  experimental system: "Serine/threonine-protein kinase Chk1 (Homo sapiens, UniProt O14757)"
  censoring qualifier: "="
  pEC50: 6.93
- compound structure: "CC1(C)CCN(Cc2ccc(-c3cnc4[nH]c5cnc(C#N)cc5c4c3)cc2)CC1"
  experimental system: "Serine/threonine-protein kinase Chk1 (Homo sapiens, UniProt O14757)"
  censoring qualifier: "="
  pEC50: 6.76
- compound structure: "N#Cc1cc2c(cn1)[nH]c1ncc(-c3ccc(CN4CCC(C#N)CC4)cc3)cc12"
  experimental system: "Serine/threonine-protein kinase Chk1 (Homo sapiens, UniProt O14757)"
  censoring qualifier: "="
  pEC50: 6.47
- compound structure: "N#Cc1cc2c(cn1)[nH]c1ncc(-c3ccc(CN4CCCCC4)cc3)cc12"
  experimental system: "Serine/threonine-protein kinase Chk1 (Homo sapiens, UniProt O14757)"
  censoring qualifier: "="
  pEC50: 7.27
- compound structure: "c1cncc(-c2cc3c(cn2)[nH]c2ncc(-c4ccc(CN5CCCCC5)cc4)cc23)c1"
  experimental system: "Serine/threonine-protein kinase Chk1 (Homo sapiens, UniProt O14757)"
  censoring qualifier: "="
  pEC50: 7.12
- compound structure: "N#Cc1cc2c(cn1)[nH]c1ncc(O)cc12"
  experimental system: "Serine/threonine-protein kinase Chk1 (Homo sapiens, UniProt O14757)"
  censoring qualifier: "<"
  pEC50: 5.30
- compound structure: "CCNc1cnc2[nH]c3cnc(C#N)cc3c2c1"
  experimental system: "Serine/threonine-protein kinase Chk1 (Homo sapiens, UniProt O14757)"
  censoring qualifier: "="
  pEC50: 5.75
- compound structure: "CCNC(=O)c1cc2c(cn1)[nH]c1ncc(-c3ccc(CN4CCCCC4)cc3)cc12"
  experimental system: "Serine/threonine-protein kinase Chk1 (Homo sapiens, UniProt O14757)"
  censoring qualifier: "="
  pEC50: 5.65
- compound structure: "c1nnc(-c2cc3c(cn2)[nH]c2ncc(-c4ccc(CN5CCCCC5)cc4)cc23)o1"
  experimental system: "Serine/threonine-protein kinase Chk1 (Homo sapiens, UniProt O14757)"
  censoring qualifier: "="
  pEC50: 6.99
- compound structure: "N#Cc1cc2c(cn1)[nH]c1ncc(-c3ncc[nH]3)cc12"
  experimental system: "Serine/threonine-protein kinase Chk1 (Homo sapiens, UniProt O14757)"
  censoring qualifier: "<"
  pEC50: 5.30
- compound structure: "N#Cc1cc2c(cn1)[nH]c1ncc(-c3ccc(CN4CCC5(CC4)COC5)cc3)cc12"
  experimental system: "Serine/threonine-protein kinase Chk1 (Homo sapiens, UniProt O14757)"
  censoring qualifier: "="
  pEC50: 7.14
- compound structure: "CC(=O)Nc1cccc(-c2cnc3[nH]c4cnc(C#N)cc4c3c2)c1"
  experimental system: "Serine/threonine-protein kinase Chk1 (Homo sapiens, UniProt O14757)"
  censoring qualifier: "="
  pEC50: 6.37
- compound structure: "Cn1cc(-c2cc3c(cn2)[nH]c2ncc(-c4ccc(CN5CCCCC5)cc4)cc23)cn1"
  experimental system: "Serine/threonine-protein kinase Chk1 (Homo sapiens, UniProt O14757)"
  censoring qualifier: "="
  pEC50: 8.05
- compound structure: "c1cc(-c2cc3c(cn2)[nH]c2ncc(-c4ccc(CN5CCCCC5)cc4)cc23)ccn1"
  experimental system: "Serine/threonine-protein kinase Chk1 (Homo sapiens, UniProt O14757)"
  censoring qualifier: "="
  pEC50: 5.80
- compound structure: "N#Cc1cc2c(cn1)[nH]c1ncc(-c3ccncc3)cc12"
  experimental system: "Serine/threonine-protein kinase Chk1 (Homo sapiens, UniProt O14757)"
  censoring qualifier: "<"
  pEC50: 5.30
- compound structure: "N#Cc1cc2c(cn1)[nH]c1ncc(-c3cccs3)cc12"
  experimental system: "Serine/threonine-protein kinase Chk1 (Homo sapiens, UniProt O14757)"
  censoring qualifier: "="
  pEC50: 6.32
- compound structure: "N#Cc1cc2c(cn1)[nH]c1ncc(-c3ccccn3)cc12"
  experimental system: "Serine/threonine-protein kinase Chk1 (Homo sapiens, UniProt O14757)"
  censoring qualifier: "<"
  pEC50: 5.30
- compound structure: "N#Cc1cc2c(cn1)[nH]c1ncc(-c3cccc(CO)c3)cc12"
  experimental system: "Serine/threonine-protein kinase Chk1 (Homo sapiens, UniProt O14757)"
  censoring qualifier: "<"
  pEC50: 5.30
- compound structure: "N#Cc1cc2c(cn1)[nH]c1ncc(-c3ccccc3O)cc12"
  experimental system: "Serine/threonine-protein kinase Chk1 (Homo sapiens, UniProt O14757)"
  censoring qualifier: "<"
  pEC50: 5.30
- compound structure: "N#Cc1cc2c(cn1)[nH]c1ncc(-c3ccc(CN4CCCCC4)nc3)cc12"
  experimental system: "Serine/threonine-protein kinase Chk1 (Homo sapiens, UniProt O14757)"
  censoring qualifier: "="
  pEC50: 6.27
- compound structure: "C[C@@H]1C[C@H](C)CN(Cc2ccc(-c3cnc4[nH]c5cnc(C#N)cc5c4c3)cc2)C1"
  experimental system: "Serine/threonine-protein kinase Chk1 (Homo sapiens, UniProt O14757)"
  censoring qualifier: "="
  pEC50: 6.68
- compound structure: "c1ncc(-c2cc3c(cn2)[nH]c2ncc(-c4ccc(CN5CCCCC5)cc4)cc23)cn1"
  experimental system: "Serine/threonine-protein kinase Chk1 (Homo sapiens, UniProt O14757)"
  censoring qualifier: "="
  pEC50: 6.79
- compound structure: "c1ncc(-c2cc3c(cn2)[nH]c2ncc(-c4ccc(CN5CCCCC5)cc4)cc23)o1"
  experimental system: "Serine/threonine-protein kinase Chk1 (Homo sapiens, UniProt O14757)"
  censoring qualifier: "="
  pEC50: 7.62
- compound structure: "Cn1ccc(-c2cnc3[nH]c4cnc(C#N)cc4c3c2)n1"
  experimental system: "Serine/threonine-protein kinase Chk1 (Homo sapiens, UniProt O14757)"
  censoring qualifier: "="
  pEC50: 5.60
- compound structure: "c1cc(-c2cnc3[nH]c4cnc(-c5cnoc5)cc4c3c2)ccc1CN1CCCCC1"
  experimental system: "Serine/threonine-protein kinase Chk1 (Homo sapiens, UniProt O14757)"
  censoring qualifier: "="
  pEC50: 6.84
